The reader will find reported cytotoxicity at 10 µM values listed item by item below.
Experiment Notes: Toxicity liver stage against HepG2, at 10uM
Assay type: cell-based
Parameters: test concentration 10 uM, cell line HepG2-A16-CD81EGFP
Settings: human, HepG2-A16-CD81EGFP cells; read-out: INHIBITION
Hi! Could you send only the number? It should be in %, unit omitted.

Molecule: COc1ccc2ncn(Cc3ncc[nH]3)c(=O)c2c1
cytotoxicity at 10 µM [%]: -11

Molecule: CCn1ccnc1CN1CCN(CC(=O)NC2CCOCC2)CC1
cytotoxicity at 10 µM [%]: -6.22

Molecule: COCC1CN(C(=O)c2cnc(C)cn2)Cc2ncnn2C1 (stereo unspecified)
cytotoxicity at 10 µM [%]: 2.31

Molecule: CSc1ccc(C(CC(=O)O)NC(=O)c2cc(C)on2)cc1 (stereo unspecified)
cytotoxicity at 10 µM [%]: -12.1

Molecule: Cc1nnc([C@@H]2C[C@H]3CN(C(=O)C4CC4)C[C@H]3O2)[nH]1
cytotoxicity at 10 µM [%]: 19.8

Moving on to the next molecule.
Ask | Which cytotoxicity at 10 µM is listed for O=C1CCC2(CCCN(c3ncnc4[nH]cnc34)C2)CN1CCCO (stereo unspecified) ?
Reply | -2.09

----------
The reader will find reported cytotoxicity at 10 µM values listed item by item below.
Experiment Notes: Toxicity liver stage against HepG2, at 10uM
Type: cell-based
Parameters: test concentration 10 uM, cell line HepG2-A16-CD81EGFP
Settings: human, HepG2-A16-CD81EGFP cells; read-out: INHIBITION
Hi! Could you send only the number? It should be in %, unit omitted.

Compound: CCN(Cc1ccc(Cl)s1)S(=O)(=O)CCOC
Readout Kind: cytotoxicity at 10 µM
Observed Result: 12.1
--
Compound: CC(C)n1cnnc1CN(C)C(=O)C1CCCN(C2CCN(C)CC2)C1 (centres undefined)
Readout Kind: cytotoxicity at 10 µM
Observed Result: -1.26
--
Compound: CN(C)C(=O)c1cc(-c2ccccc2)[nH]n1
Readout Kind: cytotoxicity at 10 µM
Observed Result: -4.5
--
Compound: O=C(NC1CCCCC1)N1C[C@H]2CN(c3cnccn3)C[C@@]2(C(=O)O)C1
Readout Kind: cytotoxicity at 10 µM
Observed Result: 13.7
--
Compound: CSC(CNS(N)(=O)=O)c1cccc(Cl)c1 (centres undefined)
Readout Kind: cytotoxicity at 10 µM
Observed Result: -14.3

Ask | Which cytotoxicity at 10 µM is listed for Oc1cc(-c2ccsc2)nc(C2CCN(Cc3ccncc3)CC2)n1 ?
Reply | -7.7

Ask | Field entry: CN(C)C(=O)N1C[C@@H](C(=O)NCc2ccco2)C[C@H]2OCC[C@H]21
Reply | 2.57

Ask | Field entry: CC(=O)N1CCN(C(=O)NC(C)C)CC2(CNC(=O)C2)C1 (centres undefined)
Reply | -1.63

Ask | Field entry: CN(C)Cc1nnc(C(=O)N(C)Cc2ccc(F)cc2)o1
Reply | 0.624

Ask | Field entry: CC(C)NC(=O)c1sc2ccccc2c1C1CCC(CN)CC1 (centres undefined)
Reply | -3.28

Ask | Field entry: CCN1CCCC(CNC(=O)C2(c3cc(C)cc(C)c3)CCC2)C1 (centres undefined)
Reply | -10.7

Ask | Field entry: O=C(NC1CCN(c2cccc(OC(F)(F)F)c2)C1=O)C1CC1 (centres undefined)
Reply | 19.2

Ask | Field entry: Cc1ncsc1C(=O)NCc1cc2n(n1)CCN(C(=O)N(C)C)C2
Reply | -5.62

----------
Experiment Notes: Toxicity liver stage against HepG2, at 10uM
Assay type: cell-based
Set-up: test concentration 10 uM, cell line HepG2-A16-CD81EGFP
Settings: human, HepG2-A16-CD81EGFP cells; read-out: INHIBITION
Readout Kind: cytotoxicity at 10 µM (%)
Hi! Could you send only the number? It should be in %, unit omitted.

Example results:
Compound: O=C(CCS(=O)(=O)C1CCCC1)N1CCCC1c1ccsc1 (centres undefined)
Observed Result: 1.06
--
Compound: CCn1cc(CN(C)S(=O)(=O)c2ccccc2)cn1
Observed Result: 11.9
--
Compound: CCN(CC)S(=O)(=O)N1C[C@H]2CC[C@@H](C1)N(Cc1cscn1)C2=O
Observed Result: -21.1
--
Compound: CCOC(C)C(=O)N1CCCN(Cc2csc(CC)n2)CC1 (centres undefined)
Observed Result: -13

Moving on to the next compound.
Ask | Which cytotoxicity at 10 µM is listed for COc1ccc(C)cc1CNC(=O)C1=NN(c2ccccc2)C(=O)CN1 ?
Reply | 12.8

----------
Experiment Notes: Toxicity liver stage against HepG2, at 10uM
Format: cell-based
Design: test concentration 10 uM, cell line HepG2-A16-CD81EGFP
Settings: human, HepG2-A16-CD81EGFP cells; read-out: INHIBITION
Readout Kind: cytotoxicity at 10 µM (%)
Hi! Could you send only the number? It should be in %, unit omitted.

Molecule: Cn1nccc1C(=O)N1C[C@@H]2CN(S(C)(=O)=O)CCO[C@@H]2C1
cytotoxicity at 10 µM, %: 9.61

Molecule: Cc1cnn(CC2CCCN2C(=O)CCc2ccc3c(c2)OCO3)c1 (stereo not given)
cytotoxicity at 10 µM, %: -19

Ask | Which cytotoxicity at 10 µM is listed for COCC(=O)N1CCN(C(C)c2ncc(-c3ccccc3)o2)CC1 (stereo not given) ?
Reply | 5.66

Ask | Field entry: Cc1noc2nc(C3CCN(CC4CCCCC4)CC3)cc(C(F)F)c12
Reply | -0.335

Ask | Field entry: c1ccc(CN2CC[C@H]3CO[C@H](CNc4ncccn4)[C@H]3C2)cc1
Reply | -5.87

----------
The reader will find reported cytotoxicity at 10 µM values listed item by item below.
Experiment Notes: Toxicity liver stage against HepG2, at 10uM
Type: cell-based
Parameters: test concentration 10 uM, cell line HepG2-A16-CD81EGFP
Settings: human, HepG2-A16-CD81EGFP cells; read-out: INHIBITION
Please answer in the form of a number followed by its unit of measurement.

Example results:
Molecule: COc1ccc(C(=O)O)c(OCC(=O)NC(C)c2ccc(F)cc2)c1 (configuration not stated)
cytotoxicity at 10 µM: 1.65%

Molecule: OCCn1nccc1C1CCN(CCOc2ccc(Cl)cc2)CC1
cytotoxicity at 10 µM: -4.68%

Ask | Which cytotoxicity at 10 µM is listed for Cn1cc(-c2nc(CNCCn3cccn3)cs2)cn1 ?
Reply | -13%

Ask | Field entry: c1coc(CN2CCCn3c(nnc3Cn3cccn3)C2)c1
Reply | -0.945%

Ask | Field entry: CCCS(=O)(=O)NCCc1ncc(C)s1
Reply | -9.31%

Ask | Field entry: O=C(C1CCN(c2cccnn2)C1)N1CCOCC1 (configuration not stated)
Reply | -25.4%

Ask | Field entry: Cc1cccc(-c2[nH]ncc2CNCC2CCN(CC(C)O)CC2)c1 (configuration not stated)
Reply | -10.1%

Ask | Field entry: Cc1noc(C)c1CNCC1CNc2ccnn2C1 (configuration not stated)
Reply | -2.72%

Ask | Field entry: O=C(Nc1ccc(Br)cc1F)c1ccc(N2CCCCC2)nn1
Reply | 1.16%

Ask | Field entry: O=C(NCCCc1nnc2ccccn12)c1ccccc1C1CCNC1 (configuration not stated)
Reply | -2.51%

Ask | Field entry: CN1CCOC(CN(C(=O)CCc2ccco2)c2nccs2)C1 (configuration not stated)
Reply | -16.1%

Ask | Field entry: Cc1ccsc1C(Cc1ccccc1)NC(=O)CNC(=O)C1CC1 (configuration not stated)
Reply | 11.6%

----------
Experiment Notes: Toxicity liver stage against HepG2, at 10uM
Type: cell-based
Design: test concentration 10 uM, cell line HepG2-A16-CD81EGFP
Settings: human, HepG2-A16-CD81EGFP cells; read-out: INHIBITION
Readout Kind: cytotoxicity at 10 µM (%)
Hi! Could you send only the number? It should be in %, unit omitted.

Example results:
Compound: CC(C)CCN1CCC2(CNS(=O)(=O)c3cccnc3O2)C1 (stereo not drawn)
Unit Of Measure: %
cytotoxicity at 10 µM: 4.1

Compound: Cc1ccc(NC2CCN(C(=O)c3ccc(F)cc3Cl)CC2)nn1
Unit Of Measure: %
cytotoxicity at 10 µM: -14.1

Compound: CCN1CCCC(O)(CNCc2ccccc2F)C1 (stereo not drawn)
Unit Of Measure: %
cytotoxicity at 10 µM: -5.66

Compound: COCc1cc(N2CCOC(c3ccc(F)cc3)C2)ncn1 (stereo not drawn)
Unit Of Measure: %
cytotoxicity at 10 µM: -0.987

Compound: O=C(Nc1ccccc1)C1=NOC2(CCCN(C(=O)N3CCCC3)C2)C1 (stereo not drawn)
Unit Of Measure: %
cytotoxicity at 10 µM: -1.66

Ask | Which cytotoxicity at 10 µM is listed for CCC(=O)Nc1ccc2c(ccn2CCOC)c1 ?
Reply | 3.54

Ask | Field entry: O=C1CNc2ncnc(Nc3cnn(Cc4cccc(F)c4)c3)c2N1
Reply | 4.67

Ask | Field entry: Cc1n[nH]c(C2CN(C(=O)c3ccc4c(c3)CCCC4)CCO2)n1 (stereo not drawn)
Reply | -10.8
